All values here come from patent US12421225B2.

SYSTEM NAME: human Nav1.5 (Homo sapiens (Human), UniProt Q14524)
Sequence (Q14524 whole entry): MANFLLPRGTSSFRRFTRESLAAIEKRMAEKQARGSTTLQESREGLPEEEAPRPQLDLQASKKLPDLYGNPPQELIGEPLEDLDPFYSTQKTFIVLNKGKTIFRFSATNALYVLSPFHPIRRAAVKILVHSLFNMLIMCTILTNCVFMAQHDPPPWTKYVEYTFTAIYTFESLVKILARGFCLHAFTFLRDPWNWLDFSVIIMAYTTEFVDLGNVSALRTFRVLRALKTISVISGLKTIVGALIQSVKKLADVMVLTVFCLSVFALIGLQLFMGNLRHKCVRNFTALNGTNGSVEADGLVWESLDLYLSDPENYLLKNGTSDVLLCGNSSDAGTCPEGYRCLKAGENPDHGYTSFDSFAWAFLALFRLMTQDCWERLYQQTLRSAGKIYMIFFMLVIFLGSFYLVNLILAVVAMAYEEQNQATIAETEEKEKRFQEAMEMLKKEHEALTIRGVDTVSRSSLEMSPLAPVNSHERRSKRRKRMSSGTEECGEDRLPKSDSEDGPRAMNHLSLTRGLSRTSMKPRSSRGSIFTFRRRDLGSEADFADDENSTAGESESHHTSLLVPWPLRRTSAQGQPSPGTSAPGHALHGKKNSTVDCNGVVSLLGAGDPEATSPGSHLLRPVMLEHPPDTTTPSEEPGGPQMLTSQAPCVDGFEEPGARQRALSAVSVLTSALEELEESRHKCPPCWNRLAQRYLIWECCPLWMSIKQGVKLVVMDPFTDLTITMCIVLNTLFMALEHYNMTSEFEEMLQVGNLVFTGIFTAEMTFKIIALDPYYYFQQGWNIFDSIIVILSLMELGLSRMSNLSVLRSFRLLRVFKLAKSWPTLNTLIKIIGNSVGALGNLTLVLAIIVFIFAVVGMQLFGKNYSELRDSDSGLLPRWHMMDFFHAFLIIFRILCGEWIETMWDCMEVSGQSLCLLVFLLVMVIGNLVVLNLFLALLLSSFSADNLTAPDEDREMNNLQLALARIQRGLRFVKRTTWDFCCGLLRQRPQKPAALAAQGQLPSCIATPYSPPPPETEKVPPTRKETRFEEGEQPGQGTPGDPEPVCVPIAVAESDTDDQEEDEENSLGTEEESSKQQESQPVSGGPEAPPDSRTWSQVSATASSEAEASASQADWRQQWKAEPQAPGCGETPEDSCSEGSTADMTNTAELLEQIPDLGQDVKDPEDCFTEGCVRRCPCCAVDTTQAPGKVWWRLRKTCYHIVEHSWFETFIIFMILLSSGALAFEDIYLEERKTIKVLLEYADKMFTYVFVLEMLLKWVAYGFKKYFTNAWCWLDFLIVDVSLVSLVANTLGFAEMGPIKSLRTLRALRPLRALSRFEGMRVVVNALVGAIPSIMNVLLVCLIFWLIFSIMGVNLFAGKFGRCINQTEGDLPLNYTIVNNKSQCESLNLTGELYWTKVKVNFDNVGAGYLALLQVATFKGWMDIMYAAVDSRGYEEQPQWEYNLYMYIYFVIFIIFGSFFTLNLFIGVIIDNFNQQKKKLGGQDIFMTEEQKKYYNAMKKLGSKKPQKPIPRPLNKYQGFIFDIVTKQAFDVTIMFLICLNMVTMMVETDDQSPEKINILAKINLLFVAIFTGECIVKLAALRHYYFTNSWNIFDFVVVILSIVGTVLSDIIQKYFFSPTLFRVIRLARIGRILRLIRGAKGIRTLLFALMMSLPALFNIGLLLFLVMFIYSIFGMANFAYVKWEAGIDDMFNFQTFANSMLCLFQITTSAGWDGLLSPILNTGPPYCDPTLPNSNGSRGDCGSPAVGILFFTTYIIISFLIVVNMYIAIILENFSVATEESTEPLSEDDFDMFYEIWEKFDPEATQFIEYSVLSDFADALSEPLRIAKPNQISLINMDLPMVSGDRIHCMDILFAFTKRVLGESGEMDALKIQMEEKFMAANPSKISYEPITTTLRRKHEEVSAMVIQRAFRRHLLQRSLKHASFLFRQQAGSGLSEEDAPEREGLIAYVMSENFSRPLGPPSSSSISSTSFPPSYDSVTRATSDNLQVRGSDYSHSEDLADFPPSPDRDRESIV
TEST SUMMARY: Human Nav1.5 inhibitory activity evaluation (automated patch clamp QPatch16X, HEK293 cells stably expressing human Nav1.5)
Assay type: cell-based
CONDITION NOTES: HEK293 cells stably expressing human Nav1.5, automated patch clamp QPatch16X
pIC50: −log10 of the molar value.
VALUE KIND: pIC50

molecule="O=C(N[C@H]1COc2ccc(Cl)cc2C1)c1cc2n(n1)CCC(CN1CCOCC1)O2 (stereo partly drawn) [Example 122]" result="≤ 5.52"
molecule="O=C(N[C@H]1COc2ccccc2C1)c1cn2c(n1)CNC(CCC1CCCC1)C2 (stereo partly drawn) [Example 51]" result="5.52 to 6.00"
molecule="O=C(N[C@H]1COc2ccc(Cl)cc2C1)c1cn2c(n1)CCC(OCC(F)(F)F)C2 (single isomer, unassigned) [39 (isomer B)]" result="≤ 5.52"
molecule="O=C(NC1COc2cccc(Br)c2C1)c1cn2c(n1)CCC(C(F)(F)F)C2 (single isomer, unassigned) [9 (isomer A)]" result="≤ 5.52"
molecule="N#Cc1ccc2c(c1)C[C@@H](NC(=O)c1cc3n(n1)CCC(c1ccccc1F)O3)CO2 (stereo partly drawn) [Example 70]" result="5.52 to 6.00"
molecule="N#Cc1ccc2c(c1)C[C@@H](NC(=O)c1cc3n(n1)CCC(COc1ccccc1)O3)CO2 (stereo partly drawn) [Example 118]" result="> 6.00"
molecule="O=C(N[C@H]1COc2ccc(CC(F)F)cc2C1)c1cc2n(n1)CCC(COCC(F)(F)F)O2 (single isomer, unassigned) [127 (isomer A)]" result="≤ 5.52"
molecule="COc1cc(C2CCn3nc(C(=O)N[C@H]4COc5ccc(C#N)cc5C4)cc3O2)ccn1 (single isomer, unassigned) [74 (isomer A)]" result="≤ 5.52"
molecule="CCc1ccc2c(c1)C[C@@H](NC(=O)c1cn3c(n1)CCC(C(F)(F)F)C3)CO2 (stereo partly drawn) [Example 11]" result="≤ 5.52"
molecule="O=C(N[C@H]1COc2ccc(CC(F)F)cc2C1)c1cc2n(n1)CCC(COC(F)F)O2 (stereo partly drawn) [Example 137]" result="≤ 5.52"
molecule="COc1cccc(C2CCc3nc(C(=O)N[C@H]4COc5ccccc5C4)cn3C2)n1 (stereo partly drawn) [Example 27]" result="> 6.00"
molecule="CC(C)CCC1Cn2cc(C(=O)N[C@H]3COc4ccccc4C3)nc2CN1 (stereo partly drawn) [Example 49]" result="≤ 5.52"
molecule="N#Cc1ccc2c(c1)C[C@@H](NC(=O)c1cc3n(n1)CCC(CC1CC1)O3)CO2 (stereo partly drawn) [Example 96]" result="5.52 to 6.00"
molecule="O=C(N[C@H]1COc2ccc(CC(F)F)cc2C1)c1cc2n(n1)CCC(COC(F)(F)F)O2 (stereo partly drawn) [Example 135]" result="5.52 to 6.00"
molecule="O=C(N[C@H]1COc2ccc(-c3ccccn3)cc2C1)c1cc2n(n1)CCC(COCC1CC1)O2 (single isomer, unassigned) [111 (isomer B)]" result="5.52 to 6.00"

###

SYSTEM NAME: UniProt:Q14524
TEST SUMMARY: Human Nav1.5 inhibitory activity evaluation (automated patch clamp QPatch16X, HEK293 cells stably expressing human Nav1.5)
Type: cell-based
CONDITION NOTES: human Nav1.5, automated patch clamp
VALUE KIND: IC50

compound="O=C(N[C@H]1COc2ccc(COCC(F)(F)F)cc2C1)c1cc2n(n1)CCC(CCOC(F)F)O2 (single isomer, unassigned) [150 (isomer B)]" value_kind=IC50 result="1000 to 3000 nM"
compound="O=C(N[C@H]1COc2ccc(COCC(F)(F)F)cc2C1)c1cc2n(n1)CC(COC(F)(F)F)O2 (stereo partly shown) [Example 195]" value_kind=IC50 result="≥ 3000 nM"
compound="O=C(N[C@H]1COc2ccc(C(F)(F)F)cc2C1)c1cc2n(n1)CCC(C#CC1CC1)O2 (stereo partly shown) [Example 402]" value_kind=IC50 result="≥ 3000 nM"
compound="O=C(N[C@H]1COc2ccccc2C1)c1cc2n(n1)CCC(c1ccccc1)N2 (stereo partly shown) [Example 287]" value_kind=IC50 result="≥ 3000 nM"
compound="Cn1ccc(-c2c(C(=O)N[C@H]3COc4ccc(C(F)(F)F)cc4C3)nn3c2COCC3)n1 [Example 518]" value_kind=IC50 result="1000 to 3000 nM"
compound="O=C(N[C@H]1COc2ccc(C(F)(F)F)cc2C1O)c1cc2n(n1)CC(CCCOCC(F)F)O2 (single isomer, unassigned) [608 (isomer B)]" value_kind=IC50 result="≥ 3000 nM"
compound="O=C(N[C@H]1COc2ccc(COCC(F)(F)F)cc2C1)c1cc2n(n1)CC(CCNCC(F)(F)F)O2 (single isomer, unassigned) [232 (isomer A)]" value_kind=IC50 result="1000 to 3000 nM"
compound="O=C(N[C@H]1COc2ccc(Cl)cc2C1)c1cc2n(n1)CCC(OCC(F)(F)F)CO2 (single isomer, unassigned) [256 (isomer A)]" value_kind=IC50 result="≥ 3000 nM"
compound="Cc1ccc2c(c1)C[C@@H](NC(=O)c1cc3n(n1)CC(CCNCC(F)(F)F)O3)CO2 (stereo partly shown) [Example 227]" value_kind=IC50 result="1000 to 3000 nM"
compound="O=C(N[C@H]1COc2ccc(CC(F)F)cc2C1)c1cc2n(n1)CC(CCOC(F)F)O2 (single isomer, unassigned) [219 (isomer A)]" value_kind=IC50 result="≥ 3000 nM"
compound="N#Cc1ccc(N2CCn3nc(C(=O)N[C@H]4COc5ccc(Cl)cc5C4)cc3C2)nc1 [Example 280]" value_kind=IC50 result="< 1000 nM"
compound="O=C(N[C@H]1COc2ccccc2C1)c1cc2n(n1)CCC(c1ccccc1)O2 (stereo partly shown) [Example 349]" value_kind=IC50 result="1000 to 3000 nM"
compound="O=C(N[C@H]1COc2ccc(C(F)(F)F)cc2C1)c1cc2n(n1)CC(CCNCC(F)(F)F)O2 (stereo partly shown) [Example 229]" value_kind=IC50 result="1000 to 3000 nM"
compound="O=C(N[C@H]1COc2ccc(COCC(F)(F)F)cc2C1)c1cc2n(n1)CC(CC1CCOCC1)O2 (single isomer, unassigned) [622 (isomer B)]" value_kind=IC50 result="≥ 3000 nM"
compound="N#Cc1ccc2c(c1)C[C@@H](NC(=O)c1cc3n(n1)CCC(OC(F)(F)F)CO3)CO2 (stereo partly shown) [Example 252]" value_kind=IC50 result="≥ 3000 nM"
compound="O=C(N[C@H]1COc2ccc(C(F)(F)F)cc2C1)c1cc2n(n1)CCC(COCC(F)(F)F)O2 (stereo partly shown) [Example 432]" value_kind=IC50 result="1000 to 3000 nM"
compound="O=C(N[C@H]1COc2ccc(CCOC(F)F)cc2C1)c1cc2n(n1)CC(CCOC(F)F)O2 (single isomer, unassigned) [217 (isomer B)]" value_kind=IC50 result="< 1000 nM"
compound="CC(F)(F)C1CCn2nc(C(=O)N[C@H]3COc4ccc(Cl)cc4C3)cc2O1 (stereo partly shown) [Example 167]" value_kind=IC50 result="1000 to 3000 nM"
compound="O=C(N[C@H]1COc2ccc(COc3ccccn3)cc2C1)c1cc2n(n1)CCC(C(F)(F)F)O2 (stereo partly shown) [Example 392]" value_kind=IC50 result="1000 to 3000 nM"
compound="CC(C)(F)C1CCn2nc(C(=O)N[C@H]3COc4ccc(C#N)cc4C3)cc2O1 (single isomer, unassigned) [547 (isomer A)]" value_kind=IC50 result="≥ 3000 nM"
compound="O=C(N[C@H]1COc2ccc(C(F)(F)F)cc2C1)c1cc2n(n1)CCC(C(F)F)O2 (single isomer, unassigned) [161 (isomer A)]" value_kind=IC50 result="≥ 3000 nM"
compound="O=C(N[C@H]1COc2ccc(Br)cc2C1)c1cc2n(n1)CC(C(F)(F)F)O2 (stereo partly shown) [Example 445]" value_kind=IC50 result="≥ 3000 nM"
compound="O=C(NC1COc2cccc(-c3ccccc3)c2C1)c1cn2c(n1)CCC(C(F)(F)F)C2 (stereo not shown) [Example 291]" value_kind=IC50 result="≥ 3000 nM"
compound="O=C(N[C@H]1COc2ccc(C(F)(F)F)cc2C1)c1nn2c(c1C(O)c1ccccn1)COCC2 (stereo partly shown) [Example 530]" value_kind=IC50 result="≥ 3000 nM"
compound="N#Cc1ccc2c(c1)C[C@@H](NC(=O)c1cc3n(n1)CCC(COc1ccccn1)O3)CO2 (stereo partly shown) [Example 411]" value_kind=IC50 result="≥ 3000 nM"
compound="N#Cc1ccc2c(c1)C[C@@H](NC(=O)c1cc3n(n1)CCN(CC(F)(F)C(F)(F)F)C3)CO2 [Example 489]" value_kind=IC50 result="≥ 3000 nM"
compound="O=C(N[C@H]1COc2ccc(C(F)(F)F)cc2C1O)c1cc2n(n1)CC[C@H](COCC1CC1)O2 (single isomer, unassigned; isomer a) [575(isomer A)]" value_kind=IC50 result="1000 to 3000 nM"
compound="COc1cccc(-c2c(C(=O)N[C@H]3COc4ccccc4C3)nc3n2CCCC3)n1 [Example 303]" value_kind=IC50 result="1000 to 3000 nM"
